system under test: full-length SHP2 wild-type (SHP2-WT) (Homo sapiens (Human))
test summary: DiFMUP fluorescence intensity phosphatase inhibition assay, SHP2-WT activated with IRS-1 peptide
details: DiFMUP at Km (60 μM), IRS-1 peptide activated
pIC50: −log10 of the molar value.
endpoint: pIC50

**Query** pIC50 lookup needed for COc1ccc(-c2ccc(/C=C3\Sc4ccccc4C3=O)o2)cc1C(=O)O , thanks.
**Result** 4.00 to 4.70

---
**Query** # pIC50 lookup, item O=C(NCc1ccccc1)c1cccc(-c2ccc(/C=C3\Sc4ccccc4C3=O)o2)c1
**Result** ≤ 4.00

**Query** I would be grateful if you could share the reported pIC50 for N#Cc1cc(-c2ccc(/C=C3\Sc4ccccc4C3=O)o2)ccc1O .
**Result** 4.70 to 6.00

**Query** What value of pIC50 has been recorded for this entry: O=C(Nc1ccc2ccccc2n1)c1cccc(-c2ccc(/C=C3\Sc4ccccc4C3=O)o2)c1
**Result** ≤ 4.00

**Query** For O=C1/C(=C/c2ccc(-c3ccc(O)c(C(=O)N4CCCCC4)c3)o2)Sc2ccccc21 , what is its reported pIC50?
**Result** 4.00 to 4.70

**Query** Quick one: pIC50 for O=C(Nc1ccccc1)c1cc(-c2ccc(/C=C3\Sc4ccccc4C3=O)o2)ccc1O ?
**Result** 4.70 to 6.00

* * *

system under test: SHP2-E76K (Homo sapiens (Human), UniProt Q06124, E76K)
test summary: Michaelis-Menten kinetics and mode of inhibition
details: DiFMUP substrate, read-out: inhibition constant (Ki) for noncompetitive inhibition
Method: Using nonlinear regression, initial rates at various inhibitor and substrate concentrations were fitted to the Michaelis-Menten equations for competitive, noncompetitive, uncompetitive, and mixed inhibition. Fitting models were then compared using Akaike's Information Criterion (AIC), and inhibition mode probabilities were calculated from the differences between the corresponding second-order corrected AIC scores. […]
endpoint: pKi
In simple prose, pKi is minus the logarithm base ten of a concentration in moles per litre.

**Query** Quick one: pKi of O=C(Nc1ccccc1)c1cc(-c2ccc(/C=C3\Sc4ccccc4C3=O)o2)ccc1O ?
**Result** 5.74

* * *

system under test: full-length SHP2-E76K oncogenic mutant (Homo sapiens (Human), UniProt Q06124, E76K)
Sequence (Q06124 whole entry E76K): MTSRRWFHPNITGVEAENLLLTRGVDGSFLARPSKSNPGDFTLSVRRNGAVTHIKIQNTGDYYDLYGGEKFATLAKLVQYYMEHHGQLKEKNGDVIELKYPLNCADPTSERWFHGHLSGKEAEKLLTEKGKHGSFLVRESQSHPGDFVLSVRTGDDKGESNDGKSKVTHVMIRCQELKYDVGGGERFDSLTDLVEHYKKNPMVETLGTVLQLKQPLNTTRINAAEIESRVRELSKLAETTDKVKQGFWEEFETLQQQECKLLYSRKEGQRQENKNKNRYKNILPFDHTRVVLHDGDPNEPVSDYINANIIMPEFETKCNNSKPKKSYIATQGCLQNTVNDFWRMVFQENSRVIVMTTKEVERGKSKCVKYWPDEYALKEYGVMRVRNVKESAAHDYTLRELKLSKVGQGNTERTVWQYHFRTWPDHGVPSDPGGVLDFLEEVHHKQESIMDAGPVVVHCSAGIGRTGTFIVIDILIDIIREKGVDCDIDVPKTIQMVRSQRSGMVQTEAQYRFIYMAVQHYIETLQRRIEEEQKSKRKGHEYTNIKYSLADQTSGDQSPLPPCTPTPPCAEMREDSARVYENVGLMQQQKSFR
test summary: DiFMUP fluorescence intensity phosphatase inhibition assay, SHP2-E76K
Format: biochemical
details: inactive analog used as negative control; SHP2 construct not specified; read-out: SHP2 IC50
pIC50: −log10 of the molar value.
endpoint: pIC50

**Query** Field request: pIC50 | item: CC(C)NC(=O)c1cccc(-c2ccc(/C=C3\Sc4ccccc4C3=O)o2)c1
**Result** < 4.00

* * *

system under test: UniProt:Q06124
test summary: DiFMUP fluorescence intensity phosphatase inhibition assay, SHP2-WT activated with IRS-1 peptide
Type: biochemical
details: DiFMUP at Km (60 μM), IRS-1 peptide activated
Recorded IC50 for the following compounds

In the examples that follow, each entry is paired with its recorded IC50.
**Query** Recorded IC50 for O=C1/C(=C/c2ccc(-c3ccc(O)c(C(=O)O)c3)o2)CCC/C1=C\c1ccc(-c2ccc(O)c(C(=O)O)c2)o1 , please?
**Result** ≤ 1 µM

**Query** Given the compound O=C1NC(=O)/C(=C/c2ccc(-c3cccc(C(=O)Nc4ccccc4)c3)o2)S1 , what is its reported IC50?
**Result** 20 to 100 µM

**Query** Which value of IC50 has been reported for CN1CCN(C(=O)c2cc(-c3ccc(/C=C4\Sc5ccccc5C4=O)o3)ccc2O)CC1 in the records?
**Result** ≥ 100 µM

Now, please, on to the next compound.
**Query** Using the record for COc1cccc(NC(=O)c2cccc(-c3ccc(/C=C4\Sc5ccccc5C4=O)o3)c2)c1 , report its IC50.
**Result** 20 to 100 µM

* * *

system under test: full-length SHP2-E76K oncogenic mutant (Homo sapiens (Human), UniProt Q06124, E76K)
test summary: DiFMUP fluorescence intensity phosphatase inhibition assay, SHP2-E76K
Format: biochemical
details: IC50 against SHP2-E76K, in vitro phosphatase inhibition assay, screening hit; heading: IC50 against SHP2-E76K
endpoint: pIC50
// field semantics: pIC50 = negative decimal log of concentration (mol/L)

**Query** Any idea what pIC50 was measured for O=C(Nc1ccccc1)c1cc(-c2ccc(/C=C3\Sc4ccccc4C3=O)o2)ccc1O ?
**Result** 5.74

* * *

Notes on IC50 obtained with striatal-enriched tyrosine phosphatase (STEP) catalytic domain (Homo sapiens (Human)).
Sequence (P54829 280-565 limits assumed): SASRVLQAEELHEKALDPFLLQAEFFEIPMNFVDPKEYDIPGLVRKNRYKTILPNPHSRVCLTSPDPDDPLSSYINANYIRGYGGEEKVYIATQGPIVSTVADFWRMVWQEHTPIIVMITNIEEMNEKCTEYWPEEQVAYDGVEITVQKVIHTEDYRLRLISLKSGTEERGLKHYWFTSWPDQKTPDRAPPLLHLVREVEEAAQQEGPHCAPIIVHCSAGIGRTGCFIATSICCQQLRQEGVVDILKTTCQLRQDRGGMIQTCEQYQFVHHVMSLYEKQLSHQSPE
endpoint: IC50 (µM)

**Query** Dear colleague, I am looking for the recorded IC50 of the following compound: Nc1ccc(NC(=O)c2cc(-c3ccc(/C=C4\Sc5ccccc5C4=O)o3)ccc2O)cc1
**Result** 44

[A] O=C(Nc1ccccc1)c1cc(-c2ccc(/C=C3\Sc4ccccc4C3=O)o2)ccc1O
[B] O=C1CCC/C1=C\c1ccc(-c2ccc(O)c(C(=O)Nc3ccccc3)c2)o1
**Query** I'm curious whether A or B has the smaller IC50 number. Which is it? When you have decided, please share the label of that item.
**Result** B

* * *

Form field: IC50 (one value per entry).
system under test: full-length SHP2 wild-type (SHP2-WT) (Homo sapiens (Human), UniProt Q06124)
test summary: DiFMUP fluorescence intensity phosphatase inhibition assay, SHP2-WT activated with IRS-1 peptide
details: DiFMUP at Km (60 μM), IRS-1 peptide activated

Recorded results for 6 molecules are shown here.
**Query** Would you kindly share the measured IC50 for O=C(Nc1ccccc1)c1cc(-c2ccc(/C=C3\Sc4ccccc4C3=O)o2)ccc1F ?
**Result** ≥ 100 µM

**Query** So what does the record say about IC50 for O=C1/C(=C/c2ccc(-c3ccc(O)cc3)o2)Sc2ccccc21 ?
**Result** ≥ 100 µM

**Query** // query IC50 value for entry O=C1/C(=C/c2ccc(-c3cccc(C(=O)O)c3)o2)CC/C1=C\c1ccc(-c2cccc(C(=O)O)c2)o1
**Result** ≤ 1 µM

**Query** May I ask what IC50 has been recorded for O=C(Nc1ccccc1)c1cc(F)cc(-c2ccc(/C=C3\Sc4ccccc4C3=O)o2)c1 ?
**Result** 20 to 100 µM

**Query** Entry under review: O=C(/C=C/c1ccc(-c2cccc(C(=O)O)c2)o1)/C=C/c1ccc(-c2cccc(C(=O)O)c2)o1 . Reported IC50?
**Result** ≤ 1 µM

**Query** I am curious: what IC50 value has been reported for O=C1/C(=C/c2ccc(-c3ccc(O)c(C(=O)O)c3)o2)CC/C1=C\c1ccc(-c2ccc(O)c(C(=O)O)c2)o1 ?
**Result** 1 to 20 µM

Continuing:
**Query** May I ask what IC50 has been recorded for O=C(O)c1cc(-c2ccc(/C=C3\Sc4ccccc4C3=O)o2)ccc1F ?
**Result** 20 to 100 µM

**Query** Look at this molecule and give its reported IC50. O=C(/C=C/c1ccc(-c2ccc(O)c(C(=O)O)c2)o1)c1ccccc1
**Result** 20 to 100 µM

**Query** What does the data say about its IC50? Entry: O=C(Nc1ccccc1)c1cccc(-c2ccc(/C=C3\Sc4ccccc4C3=O)o2)c1
**Result** 20 to 100 µM

* * *

system under test: SHP2 catalytic domain (SHP2cat; residues 248-527) (Homo sapiens (Human))
Sequence (Q06124 248-527): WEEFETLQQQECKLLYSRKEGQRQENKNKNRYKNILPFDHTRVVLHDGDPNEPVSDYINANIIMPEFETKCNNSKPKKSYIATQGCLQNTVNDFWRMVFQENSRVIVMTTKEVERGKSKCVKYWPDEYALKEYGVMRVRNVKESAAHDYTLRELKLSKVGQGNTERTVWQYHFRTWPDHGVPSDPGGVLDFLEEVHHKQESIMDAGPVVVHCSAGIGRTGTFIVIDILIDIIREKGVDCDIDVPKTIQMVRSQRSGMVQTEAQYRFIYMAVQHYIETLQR
test summary: DiFMUP fluorescence intensity phosphatase inhibition assay, SHP2cat
Format: biochemical
details: DiFMUP at Km (20 μM); read-out: SHP2cat IC50
endpoint: IC50

**Query** Record request: IC50 value, item O=C(/C=C/c1ccc(-c2cccc(C(=O)O)c2)o1)/C=C/c1ccc(-c2cccc(C(=O)O)c2)o1
**Result** ≤ 1000 nM

**Query** GET /values?readout=IC50&item= O=C1/C(=C/c2ccc(-c3cccc(C(=O)O)c3)o2)CC/C1=C\c1ccc(-c2cccc(C(=O)O)c2)o1
**Result** ≤ 1000 nM

**Query** Consider the compound shown here: O=C1/C(=C/c2ccc(-c3ccc(O)c(C(=O)O)c3)o2)CCC/C1=C\c1ccc(-c2ccc(O)c(C(=O)O)c2)o1 What is its recorded IC50?
**Result** ≤ 1000 nM

**Query** # lookup: IC50 of O=C1CCC/C1=C\c1ccc(-c2ccc(O)c(C(=O)O)c2)o1
**Result** 1000 to 20000 nM

**Query** Could you share which IC50 value was measured for O=C(NNc1ccccc1)c1cc(-c2ccc(/C=C3\Sc4ccccc4C3=O)o2)ccc1O ?
**Result** 1000 to 20000 nM

**Query** Look at this compound and give its reported IC50. O=C(O)c1cc(-c2ccc(/C=C3\Cc4ccccc4C3=O)o2)ccc1O
**Result** 1000 to 20000 nM

**Query** Can you share its IC50? I mean this compound: O=C(O)c1cc(-c2ccc(/C=C3\Oc4ccccc4C3=O)o2)ccc1O
**Result** 1000 to 20000 nM

**Query** // lookup IC50 for Nc1cccc(NC(=O)c2cc(-c3ccc(/C=C4\Sc5ccccc5C4=O)o3)ccc2O)c1
**Result** 1000 to 20000 nM

**Query** I am curious: what IC50 value has been reported for O=C(/C=C/c1ccc(-c2ccc(O)c(C(=O)O)c2)o1)c1cccc(C(=O)/C=C/c2ccc(-c3ccc(O)c(C(=O)O)c3)o2)c1 ?
**Result** ≤ 1000 nM

**Query** # input compound: N#Cc1cccc(-c2ccc(/C=C/C(=O)/C=C/c3ccc(-c4cccc(C#N)c4)o3)o2)c1 ; wanted: its IC50
**Result** 1000 to 20000 nM

Continuing:
**Query** For the compound shown here, O=C(O)c1cccc(-c2ccc(/C=C/C(=O)c3cccc(C(=O)/C=C/c4ccc(-c5cccc(C(=O)O)c5)o4)c3)o2)c1 , give the reported IC50.
**Result** 1000 to 20000 nM

**Query** State the recorded IC50 for this entry: Nc1ccc(NC(=O)c2cc(-c3ccc(/C=C4\Sc5ccccc5C4=O)o3)ccc2O)cc1
**Result** ≤ 1000 nM

Values compiled from patent US20250026741A1.
